Each recorded value in this set is attributed to patent US9464064B2.

Exercise: for every item that follows, state its recorded IC50.
# subject.of.test: HCV NS3 helicase NS3h_1b(con1) (Hepatitis C virus genotype 1b)
# Construct: truncated C-terminally His-tagged NS3 proteins lacking the N-terminal protease, called NS3h; His-tag (C); made in house
# Sequence (Q9WMX2 1192-1657): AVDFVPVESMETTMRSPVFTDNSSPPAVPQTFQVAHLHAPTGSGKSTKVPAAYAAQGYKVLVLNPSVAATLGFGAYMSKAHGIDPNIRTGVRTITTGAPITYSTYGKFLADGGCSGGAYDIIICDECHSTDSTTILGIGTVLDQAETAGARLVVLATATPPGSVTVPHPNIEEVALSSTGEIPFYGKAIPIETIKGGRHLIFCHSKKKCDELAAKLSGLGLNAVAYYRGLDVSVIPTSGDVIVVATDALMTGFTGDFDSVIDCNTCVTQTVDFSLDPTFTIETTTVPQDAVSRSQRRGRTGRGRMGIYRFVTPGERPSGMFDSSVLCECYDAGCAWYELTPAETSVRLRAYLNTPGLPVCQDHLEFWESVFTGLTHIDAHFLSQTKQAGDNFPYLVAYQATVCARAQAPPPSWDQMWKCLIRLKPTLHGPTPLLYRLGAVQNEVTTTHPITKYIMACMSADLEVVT
# experiment.summary: biochemical
# Format: biochemical, hepatitis C virus genotype 1b(con1)
# condition.context: DNA Unwinding IC50, standard HCV helicase MBHA (Table 9)
Give bare numbers, in µM.

smiles.str: COc1ccc(C(=O)Nc2ccc(-c3nc4ccc(-c5nc6ccc(C)c(S(=O)(=O)O)c6s5)cc4s3)cc2)cc1
measured.quantity: IC50
result.number: 10

IC50 for Cc1ccc2nc(-c3ccc4nc(-c5ccc(NC(=O)c6ccc(Cl)cc6)cc5)sc4c3)sc2c1S(=O)(=O)O is 3
